tested-system: TGFBR1 (human)
assay-protocol: radiometric filter-binding kinase assay, Kinase HotSpot
assay-context: compound 0.5 µM; ATP 10 µM
quantity-measured: residual activity (%)

[[record]]
smiles_text = "O=C(c1ccccc1)c1ccc(N2CCOCC2)cc1O"
units_of_measure = "%"
numeric_value = 94.3

[[record]]
smiles_text = "O=c1c(-c2ccc(F)cc2)c(-c2ccncc2)[nH]n1-c1ccc(Cl)cc1"
units_of_measure = "%"
numeric_value = 101

[[record]]
smiles_text = "COc1cccc(-c2cc(=O)c3ccccc3o2)c1N"
units_of_measure = "%"
numeric_value = 94.7

[[record]]
smiles_text = "O=c1c2ccccc2[nH]c(=S)n1CCN1CCC(=C(c2ccc(F)cc2)c2ccc(F)cc2)CC1"
units_of_measure = "%"
numeric_value = 96.2

[[record]]
smiles_text = "Cc1cc(Nc2nc(-c3ccccc3)nc3ccccc23)n[nH]1"
units_of_measure = "%"
numeric_value = 97.1

[[record]]
smiles_text = "O=C1NC(=O)c2c1c1c3ccccc3[nH]c1c1[nH]c3cc(Br)ccc3c21"
units_of_measure = "%"
numeric_value = 96.9

[[record]]
smiles_text = "Cn1cc(/C=C2\\C(=O)Nc3ccc(S(N)(=O)=O)cc32)c2ccccc21"
units_of_measure = "%"
numeric_value = 97.8

[[record]]
smiles_text = "CCCCc1c(-c2ccc(O)cc2)[nH]c2nccnc12"
units_of_measure = "%"
numeric_value = 100

[[record]]
smiles_text = "N/C(=N\\N=C/c1ccc(-c2cccc([N+](=O)[O-])c2)o1)N[N+](=O)[O-]"
units_of_measure = "%"
numeric_value = 96.6

[[record]]
smiles_text = "CCOc1cc2ncnc(Nc3cccc(Br)c3)c2cc1OCC"
units_of_measure = "%"
numeric_value = 96.9

[[record]]
smiles_text = "N#CCCc1ccc2c(c1)-c1[nH]c3ccc([N+](=O)[O-])cc3c1CC(=O)N2"
units_of_measure = "%"
numeric_value = 103

[[record]]
smiles_text = "O=c1cc(N2CCOCC2)oc2c(-c3ccccc3)cccc12"
units_of_measure = "%"
numeric_value = 97.5

[[record]]
smiles_text = "CCc1nc(-c2ccc(OC)cc2)[nH]c1-c1ccncc1"
units_of_measure = "%"
numeric_value = 98.2

[[record]]
smiles_text = "FC(F)(F)c1ccc(/C=C/c2nc(COc3ccc(CCCCn4ccnn4)cc3)co2)cc1"
units_of_measure = "%"
numeric_value = 98.8

[[record]]
smiles_text = "COc1cc2ncnc(Nc3ccc(O)c(Br)c3)c2cc1OC"
units_of_measure = "%"
numeric_value = 97.4

[[record]]
smiles_text = "COc1cc2c(Nc3ccc(Br)cc3F)ncnc2cc1OCC1CCN(C)CC1"
units_of_measure = "%"
numeric_value = 102

[[record]]
smiles_text = "Nc1ncnc2c1cnn2-c1ccccc1"
units_of_measure = "%"
numeric_value = 99.6

[[record]]
smiles_text = "N#C/C(=C1/Nc2ccccc2S1)c1ccnc(NCCc2cccnc2)n1"
units_of_measure = "%"
numeric_value = 97.8

[[record]]
smiles_text = "O=c1[nH]c2ccccc2n1C1CCN(Cc2ccc(-c3nc4cc5[nH]cnc5cc4nc3-c3ccccc3)cc2)CC1"
units_of_measure = "%"
numeric_value = 102

[[record]]
smiles_text = "COc1cc2c(cc1OC)-c1[nH]nc(Nc3cccc(F)c3)c1C2"
units_of_measure = "%"
numeric_value = 101

[[record]]
smiles_text = "O=C(O)c1ccc2c3c1cccc3c(=O)n1c3ccccc3nc21"
units_of_measure = "%"
numeric_value = 99.4

